# System: VRE 700221
# protocol notes: MIC, broth microdilution (CLSI)
# test context: 16 to 18 hours at 37° C.
Marks after values point to notes of the source that are not given here.
measurement type: VRE 700221 MIC

Reference set (3 entries):
COCCOCCOCCOCCOC(=O)Oc1c(Br)cc(Br)c2nc3cc(Cl)ccc3nc12 [Compound 77A]    0.1^b μM
Cc1ccc2nc3c(O)c(Br)cc(Br)c3nc2c1 [Compound 52A]    2.35^a μM
O=C(OCCSSCCOC(=O)c1ccccc1)OCOc1c(Br)cc(Br)c2nc3ccccc3nc12 [Compound 85A]    >100 µM

In the following, a different compound is considered.
Lab note: need VRE 700221 MIC with VRE 700221 for entry Oc1c(Br)cc(Br)c2nc3c(O)c(Br)cc(Br)c3nc12 , please look it up.
>50 µM

---

Readings of VRE 700221 MIC for the listed compounds
# Tested on: VRE 700221
# protocol notes: MIC, broth microdilution (CLSI)
# test context: 16 to 18 hours at 37° C.
Marks after values point to notes of the source that are not given here.

Lab note: need VRE 700221 MIC with VRE 700221 for entry CCc1cccc2nc3c(Br)cc(Br)c(O)c3nc12 [Compound 58A] , please look it up.
>100 µM

Lab note: need VRE 700221 MIC with VRE 700221 for entry CCc1cccc2nc3c(Br)cc(Br)c(O)c3nc12 [Compound 37] , please look it up.
>100 µM

Lab note: need VRE 700221 MIC with VRE 700221 for entry Cc1cc(C)c2nc3c(Br)ccc(O)c3nc2c1 [Compound 68A] , please look it up.
9.38^a μM

---

Readings of VRE 700221 MIC for the listed compounds
# System: VRE 700221
# protocol notes: MIC, broth microdilution (CLSI)
# test context: 16 to 18 hours at 37° C.
Marks after values point to notes of the source that are not given here.

Reference set (3 entries):
Cc1ccc2nc3c(Br)cc(Br)c(O)c3nc2c1C [Compound 57A]    >100 µM
COCCOCCOCCOCCOC(=O)Oc1c(Br)cc(Br)c2nc3cc(Oc4ccccc4)ccc3nc12 [Compound 78A]    0.3^a μM
CC(C)(C)c1ccc2nc3c(O)c(Br)cc(Br)c3nc2c1 [Compound 55A]    0.1^b μM

Lab note: need VRE 700221 MIC with VRE 700221 for entry CCOc1ccc2nc3c(O)c(Br)cc(Br)c3nc2c1 [Compound 60A] , please look it up.
>100 µM

Lab note: need VRE 700221 MIC with VRE 700221 for entry CCc1ccc2nc3c(O)c(Br)cc(Br)c3nc2c1 [Compound 53A] , please look it up.
2.35^a μM

Lab note: need VRE 700221 MIC with VRE 700221 for entry OC[C@H]1O[C@@H](Oc2c(Br)cc(Br)c3nc4ccccc4nc23)[C@H](O)[C@@H](O)[C@@H]1O , please look it up.
>100 µM

Lab note: need VRE 700221 MIC with VRE 700221 for entry CCN(CC)c1ccc2nc3c(O)c(Br)cc(Br)c3nc2c1Br [Compound 64A] , please look it up.
0.3^a μM

From: patent US11053205B2
